// provenance: ChEMBL document CHEMBL1938371

# protocol details: Fraction unbound in dog serum
# Format: ADME, cell-free, Canis lupus familiaris
readout name: fraction unbound

Data request: What does the data say about its fraction unbound? Entry: COc1cc2ncnc(Oc3ccc(CC(=O)Nc4cnn(C(C)C)c4)cc3)c2cc1OC
Data returned: 0.07

====

# protocol details: Volume of distribution at steady state in dog at 3 mg/kg, iv
# Format: ADME, organism-based, Canis lupus familiaris
# Set-up: dose 3 mg/kg, route intravenous
# condition context: in vivo, read-out: Vdss
readout name: Vd
# number then unit; no other words

Data request: For the compound shown here, COc1cc2ncnc(Oc3ccc(CC(=O)Nc4cnn(C(C)C)c4)cc3)c2cc1OC.O=P(O)(O)O , give the reported Vd.
Data returned: 0.7 L/kg
